System: LDL
test: Inhibition of Cu^2+-catalyzed LDL oxidation (increase in fluorescence at 430 nm)
Format: biochemical, pigs
particulars: Table I; 50% inhibition of fluorescence increase at 430 nm; 5 μM Cu^2+, 2 hours, 37° C., pH 7.4; LDL 0.1 mg protein/ml
measured.quantity: IC50 (µM)

a = C/C(=C\CSCc1c(-c2ccc(F)cc2)oc2cc(O)cc(O)c2c1=O)CCC[C@H](C)CCC[C@H](C)CCCC(C)C
b = C/C(=C\CSCc1c(-c2ccc(O)cc2)oc2cc(O)cc(O)c2c1=O)CCC[C@H](C)CCC[C@H](C)CCCC(C)C
Exercise: Please compare: a and b . Report which one has the smaller IC50 value. When you have decided, please share the label of that item.
Solution: a
(a: 0.33 µM, b: 0.9 µM)

1 = CCCCCCCCCCCCCCCCCCSCc1c(-c2ccc(F)cc2)oc2cc(O)cc(O)c2c1=O
2 = CCCCCCCCCCCCSCc1c(-c2ccc(F)cc2)oc2cc(O)cc(O)c2c1=O
Exercise: Please compare: 1 and 2 . Report which one has the smaller IC50 value. When you have decided, please share the label of that item.
Solution: 1
